Quick reference: inhibition at 1 µM of the listed items.
test system: PNT1A immortalized normal prostate cell line; assay: Tetrazolium dye proliferation (WST-1) assay, PNT1A; type: cell-based; details: Homo sapiens, 120 h, 5 days incubation, concentration not given (primary screen 1 microM), mean±SD, read-out: proliferation inhibitory effect compared with 0.1 % DMSO vehicle control group

Example cases with answers are listed next.
Compound	inhibition at 1 µM
Nc1ncnc2[nH]ncc12 [Compound I, 4-Aminopyrazolo[3,4-d]pyrimidine]	18%
O=c1[nH]c(=O)n([C@H]2C[C@H](O)[C@@H](CO)O2)cc1F [Floxuridine]	88.3%
Nc1ccn([C@@H]2O[C@H](CO)[C@@H](O)C2(F)F)c(=O)n1 [Gemcitabine, 2',2'-difluorodeoxycytidine]	98.8%

Next:
Problem: inhibition at 1 µM for Nc1ccn([C@@H]2O[C@H](CO)[C@@H](O)[C@@H]2O)c(=O)n1 [Ara-C] ?
Result: 66.5%
